Assign pKd to each entry below.
Target: HLA-B*18:01
Assay: IEDB peptide-MHC binding, purified MHC/direct/fluorescence; filed as Kd, often an IC50 or EC50 that approximates it; bounds were set here for any values at or beyond the usual limits of such assays
Details: source organism: Marburg virus - Musoke, Kenya, 1980
pKd: −log10 of the molar value.

input: HLA-B*18:01 / pKd / ISDPLTSGL : value?
output: ≤ 4.70

input: Form field: pKd recorded for IHLDKGGQF with HLA-B*18:01 (enter value)
output: ≤ 4.70

----------
Target: HLA-A*02:11
Assay: IEDB peptide-MHC binding, purified MHC/competitive/fluorescence; filed as Kd, often an IC50 or EC50 that approximates it; bounds were set here for any values at or beyond the usual limits of such assays
Conditions: source organism: Vibrio cholerae 2740-80
pKd: −log10 of the molar value.
measured_attribute: pKd

input: # pKd lookup, item IFIRTIYYH
output: ≤ 4.70

----------
Target: HLA-B*58:01
Test: IEDB peptide-MHC binding, purified MHC/competitive/radioactivity; filed as Kd, often an IC50 or EC50 that approximates it; bounds were set here for any values at or beyond the usual limits of such assays
Details: source organism: Dengue virus 1 Singapore/S275/1990
measured_attribute: Kd (nM)
Field: numeric (nM). Do not append units.

input: Which Kd is listed for LSAAIGKAW ?
output: 2.92

----------
Target: HLA-A*30:02
Experiment: IEDB peptide-MHC binding, purified MHC/competitive/radioactivity; filed as Kd, often an IC50 or EC50 that approximates it; bounds were set here for any values at or beyond the usual limits of such assays
Settings: source organism: Dengue virus 3 Martinique/1243/1999
Could you please report measured pKd for the items listed next?
Scale: negative log10 of molar concentration, which is what pKd denotes.

input: Find the recorded pKd belonging to IGNEEFLDY and report it.
output: 6.02

input: For HWFSRENSY , what is its reported pKd?
output: 6.61

----------
Target: HLA-A*31:01
Assay: IEDB peptide-MHC binding, purified MHC/direct/fluorescence; filed as Kd, often an IC50 or EC50 that approximates it; bounds were set here for any values at or beyond the usual limits of such assays
Details: source organism: Lake Victoria marburgvirus - Popp
pKd: −log10 of the molar value.
measured_attribute: pKd

input: // map GELRKAICL to recorded pKd (system: HLA-A*31:01)
output: ≤ 4.70

----------
Biological target: HLA-A*02:01
Test: IEDB peptide-MHC binding, purified MHC/competitive/radioactivity; bounds were set here for any values at or beyond the usual limits of such assays
Conditions: source organism: Hepatitis B virus subtype ayw
measured_attribute: pIC50
Please treat pIC50 as minus the base-10 logarithm of the molar concentration.

input: Could you tell me which pIC50 is on file for NLGNLNVSI ?
output: 7.12

----------
Target: HLA-B*39:01
Experiment: IEDB peptide-MHC binding, purified MHC/competitive/fluorescence; filed as Kd, often an IC50 or EC50 that approximates it; bounds were set here for any values at or beyond the usual limits of such assays
Conditions: source organism: Escherichia coli B171
pKd: −log10 of the molar value.
measured_attribute: pKd

input: GET /values?readout=pKd&item= QTNLYNLLY
output: ≤ 4.70

----------
Target: HLA-A*03:01
Experiment: IEDB peptide-MHC binding, purified MHC/competitive/fluorescence; filed as Kd, often an IC50 or EC50 that approximates it; bounds were set here for any values at or beyond the usual limits of such assays
Settings: source organism: Vibrio antiquarius
pKd: −log10 of the molar value.
measured_attribute: pKd

input: Missing value: pKd, HLA-A*03:01, entry FDLFGITLY . Fill in?
output: ≤ 4.70

----------
Biological target: HLA-B*18:01
Experiment: IEDB peptide-MHC binding, purified MHC/competitive/fluorescence; filed as Kd, often an IC50 or EC50 that approximates it; bounds were set here for any values at or beyond the usual limits of such assays
Conditions: source organism: Vibrio cholerae 2740-80
measured_attribute: Kd (µM)
// note: answer is a bare numeric in µM

input: Given KQLPPLAAW , state its recorded Kd.
output: 6.33

----------
Biological target: HLA-A*68:01
Assay: IEDB peptide-MHC binding, purified MHC/competitive/radioactivity; filed as Kd, often an IC50 or EC50 that approximates it; bounds were set here for any values at or beyond the usual limits of such assays
Settings: source organism: Mammarenavirus juninense
measured_attribute: Kd

input: Bench note: what Kd did AVAKCNLNH show?
output: ≥ 46.5 µM

----------
Biological target: HLA-A*31:01
Assay: IEDB peptide-MHC binding, purified MHC/competitive/radioactivity; filed as Kd, often an IC50 or EC50 that approximates it; bounds were set here for any values at or beyond the usual limits of such assays
Settings: source organism: Vaccinia virus WR
pKd: −log10 of the molar value.
Hi, to clarify the labels: 1 (yes) covers pKd from 6 upward, 0 (no) covers anything below 6.

input: Test whether the sequence MIKNLTQLFK records pKd of 6 or higher.
output: 1 (yes)

input: Kindly determine if pKd recorded for TLDDLAIKQY is above or exactly 6.
output: 0 (no)

input: Is it the case that AIDRQVSVK has pKd reaching or exceeding 6?
output: 0 (no)

input: Entry NFFVFIHMVR : is its pKd no less than 6?
output: 1 (yes)

input: Is the recorded value of pKd equal to or greater than 6 for this sequence? VTFRERYSY
output: 1 (yes)

input: Is the recorded value of pKd equal to or greater than 6 for this sequence? ELAELLEMK
output: 0 (no)

input: Given SVTKSSSWK , state whether its pKd is at least 6.
output: 0 (no)

input: Please check the record TSEKYSKGYK and state if its pKd is at or above 6.
output: 0 (no)

input: Confirm if pKd reported for the sequence FIMLEGETK is 6 or above.
output: 0 (no)

input: Hello, I need to know if FIVPEFAKQY has measured pKd not below 6. Thanks!
output: 0 (no)

input: Can LSTLNFNNLR be said to have pKd at or above 6?
output: 1 (yes)

input: Given the entry NIRLTDTEY , answer whether its pKd meets or surpasses 6.
output: 0 (no)

input: Textbook exercise: given the entry MINYYNEMSR , state whether its pKd is greater than or equal to 6.
output: 1 (yes)

input: Could you please find out whether KLGDKGSPYY has pKd that meets 6 or exceeds it?
output: 0 (no)

input: Kindly determine if pKd recorded for ASILSLETVK is above or exactly 6.
output: 0 (no)

input: Please indicate if the recorded pKd for PSILPSLIK meets or exceeds 6.
output: 0 (no)

input: Assess whether reported pKd for KVVKKLSVIR sits at 6 or higher.
output: 1 (yes)

input: API: above_or_equal(metric=pKd, cutoff=6) for item KSNILMWNK
output: 1 (yes)

input: Determine whether measured pKd meets or exceeds 6 for NTPVSMTYLY
output: 0 (no)

input: Form field: pKd at least 6? Entry: NISIISIRPR
output: 1 (yes)

input: Is the recorded value of pKd equal to or greater than 6 for this sequence? LIVSLCPTKK
output: 0 (no)

input: Is pKd at least 6? Consider FMLIFNVKSK
output: 0 (no)

input: Is reported pKd greater than or equal to 6 here: KSNAKCIEY
output: 1 (yes)

input: Does pKd meet or surpass 6 for LLDSIKMIY ?
output: 0 (no)

input: Is the recorded value of pKd equal to or greater than 6 for this sequence? DAVRAFLLR
output: 1 (yes)

----------
Molecular target: HLA-A*02:19
Assay: IEDB peptide-MHC binding, purified MHC/direct/fluorescence; filed as Kd, often an IC50 or EC50 that approximates it; bounds were set here for any values at or beyond the usual limits of such assays
Conditions: source organism: Influenza A virus(A/swine/Henan/8/2004(H9N2))
measured_attribute: pKd
Scale: pKd equals -log10([C]), with [C] in mol/L.

input: Any idea what its pKd is? The sequence is SLPPNFSSL
output: 6.91

----------
Biological target: HLA-B*15:01
Assay: IEDB peptide-MHC binding, purified MHC/competitive/fluorescence; filed as Kd, often an IC50 or EC50 that approximates it; bounds were set here for any values at or beyond the usual limits of such assays
Settings: source organism: Influenza A virus (A/Aichi/2/1994(H3N2))
measured_attribute: pKd
pKd is a log-scale quantity: -log10 of the concentration expressed in molar.

input: // pKd lookup, key: FQNVNRITY
output: 7.12

----------
Would you mind telling me the reported Kd of each entry?
Molecular target: HLA-A*02:03
Test: IEDB peptide-MHC binding, purified MHC/direct/fluorescence; filed as Kd, often an IC50 or EC50 that approximates it; bounds were set here for any values at or beyond the usual limits of such assays
Settings: source organism: Mycobacterium tuberculosis str. Haarlem

input: Kd lookup needed for YMLDMTFPV , thanks.
output: ≤ 1 nM

input: Name the reported Kd value associated with the sequence AIYDTMQYV
output: 3 nM

input: Report Kd for LLYDGSFAV please.
output: ≤ 1 nM
